Give measured growth for each item. Keep answers brief.
Test system: DU-145 prostate
Experiment Summary: NCI-60 one-dose screen, 48 h (100 = growth as untreated, 0 = no growth, -100 = all killed)
Condition Description: 10 µM unless noted
About 83,000 compounds went through this panel and 20% of them were active in at least one assay; those are over-represented in the sample as a whole.
Give bare numbers, in %.

Worked set:
Compound	Measurement Units	growth
COc1ccc(/C=C\c2cc(OC)c(OC)c(OC)c2)cc1OCC(=O)Nc1nc2ccccc2s1	%	-27.3
Cc1[nH]c(C2CC(c3ccc(C(F)(F)F)c(F)c3)=NN2C)c(C)c1C(=O)NCC(F)(F)F (stereo not given)	%	96.3
CC(=O)Oc1ccccc1C(=O)N(Cc1ccc2c(Cl)cc(Cl)c(O)c2n1)c1ccccc1	%	50.1
O=C(O)COc1ccc(F)cc1	%	109

For the 8 compounds below, give their growth values.
1. Cc1ccc(C(F)(F)F)cc1N1CCN(C(=O)[C@H]2C[C@H]2c2ccc(C(F)(F)F)nc2)CC1
2. CN1CCN(c2ccc(Nc3ncc4[nH]c(=O)n(Cc5ccccc5N)c4n3)cc2)CC1
3. N#Cc1c(-c2ccc(F)cc2)cc(-c2cccc(Cl)c2)[nH]c1=O
4. CCCC[N+]1(C)CCN=C1Cc1ccccc1 (stereo not given)
5. COC12C=C/C(=C(/C(=O)OCc3ccccn3)C(=O)CCCCCCCCC3(OC)C=C/C(=C(/C(=O)OCc4ccccn4)C(=O)CCCCCCCC1)O3)O2
6. CCC(C)C(N)C(=O)NC(CC(C)C)C(=O)N1CCCC1C(=O)NC(Cc1c[nH]c2ccccc12)C(=O)NC(CCCCN)C(=O)NC(Cc1c[nH]c2ccccc12)C(=O)N1CCCC1C(=O)NC(Cc1c[nH]c2ccccc12)C(=O)NC(Cc1c[nH]c2ccccc12)C(=O)N1CCCC1C(=O)NC(Cc1c[nH]c2ccccc12)C(=O)NC(CCCNC(=N)N)C(=O)NC(CCCNC(=N)N)C(N)=O (stereo not given)
7. CO[C@H]1/C=C/O[C@@]2(C)Oc3c(C)c(O)c4c(O)c(c5c(nc6cc(C)ccn65)c4c3C2=O)NC(=O)/C(C)=C\C=C\[C@H](C)[C@H](O)[C@@H](C)C(O)[C@@H](C)[C@H](OC(C)=O)[C@@H]1C (stereo not given in full)
8. COc1ccc(C2=NN3C(C2)c2cc(Br)ccc2OC3c2ccncc2)cc1 (stereo not given)

1: 105; 2: 103; 3: 73.9; 4: 106; 5: -24.5; 6: 98.4; 7: 114; 8: 96.4

For the 3 compounds below, give their growth values.
1. COc1ccc(S(=O)(=O)N(C)c2oc(-c3ccc(Cl)cc3)nc2C#N)cc1
2. c1ccc2c(-c3cnn4cc(-c5ccc(N6CCNCC6)cc5)cnc34)ccnc2c1
3. O=CN1N=C(c2cccc(Nc3ccncc3)c2)CC1c1ccc2c(c1)OCO2 (stereo not given)

1: 97.9; 2: -83.4; 3: 104

For the 5 compounds below, give their growth values.
1. O=C(O)c1nn(-c2ccc(Cl)cc2)nc1N1CCCC1
2. Nc1cc(-c2ccc(Cl)cc2)nn1-c1nc(-c2ccc(Br)cc2)cs1
3. COc1cccc(CNc2nnc(C)c(C)n2)c1O
4. CCOC(=O)c1c(N)sc2cc(O)ccc12
5. O=C(Nc1ccccc1CNc1nc(Nc2ccc(OCCN3CCCC3)cc2)ncc1Cl)NC1CCCCC1

1: 91.3; 2: 108; 3: 108; 4: 89.2; 5: 82.8

The reported measurements were obtained from PubChem BioAssay (NCI).
